Data origin, for the record: PubChem BioAssay (NCI)

System: SF-268 CNS
measurement-protocol: NCI-60 one-dose screen, 48 h (100 = growth as untreated, 0 = no growth, -100 = all killed)
stated-conditions: 10 µM unless noted
The panel holds about 83,000 compounds, 20% with a hit somewhere; the sample as a whole holds those more often.
Categorize each record by its growth using bucket A (below 50%), bucket B (50% to below 70%), bucket C (70% or more)

// query Band for COc1cccc(NC(=O)c2sc3nc4c(cc3c2N)C(=O)CCC4)c1 ?
// result bucket A

// query Class? Entry: O=C1c2cccc3cccc(c23)C(=O)N1CC#Cc1ccc2c3c(cccc13)C(=O)N(CCO)C2=O
// result bucket C

// query Using the reported growth, which band applies to C[C@@H](Oc1ccc(C(=O)NS(=O)(=O)C(C)(C)C)cc1C(F)(F)F)c1ccc(Oc2ccccc2)cn1 ?
// result bucket B

// query Please let me know in which category the item O=C1C(=O)N(CCCCn2cc(-c3ccccc3)nn2)c2ccccc21 belongs.
// result bucket C

// query Input CC(Cc1ccco1)C(=O)NC(N)=O (stereo unspecified) ; output its category
// result bucket C

// query Consider CN(C)CCCC1(c2ccc(F)cc2)OCc2cc(-c3ccc(C(F)(F)F)nc3)ccc21 (stereo unspecified) . To which growth class does it belong?
// result bucket C

// query Band for the recorded growth of COC(=O)[C@]12CC[C@@H](C)[C@H](C)[C@@H]1C1=CC[C@@H]3[C@@]4(C)C=C(O)C(=O)C(C)=C4CC[C@@]3(C)[C@]1(C)CC2 ?
// result bucket B

// query For Cc1ccsc1-c1ccc2c(c1)COC2(CCCN(C)C)c1ccc(F)cc1 (stereo unspecified) , which growth bin applies?
// result bucket B

// query Lab note: sort COC(=O)[C@]12CC[C@@H](C)[C@H](C)[C@@H]1C1=CC[C@@H]3[C@@]4(C)C[C@@H](OC(C)=O)[C@H](OC(C)=O)[C@@](C)(COC(C)=O)[C@@H]4[C@H](O)C[C@@]3(C)[C@]1(C)CC2 into the matching growth band.
// result bucket A

* * *

Test system: NCI-H460 lung
measurement-protocol: NCI-60 one-dose screen, 48 h
stated-conditions: 10 µM unless noted
Compounds without any hit were thinned out: in the full panel of roughly 83,000, 20% have a hit. Activity calls are given as the source filed them. Rule for the calls: active = growth percent below 10; inactive = the rest.
The reply should name one outcome from YES (active), NO (inactive)

// query Per the records of this test, what outcome belongs to COc1cc(-c2cc3ncccc3c3[nH]c(=O)c4cccnc4c23)cc(OC)c1OC ?
// result YES

// query Entry CCN(CC)CCCCCNc1cc(OC(=O)c2ccccc2)cc2cccnc12 : call = ?
// result NO

// query I would be grateful if you could indicate the recorded call for NC(=O)NCC1CCCCC1 .
// result NO

// query Please indicate how the test categorized N#CC1=C(N)Oc2c(sc3c(F)cccc23)C1c1ccc(Cl)cc1 (configuration not stated) .
// result NO

// query Which outcome was entered for the compound N#C/C(=C\c1ccc(-c2cccc(C(F)(F)F)c2)o1)c1nc(-c2ccco2)cs1 in this test?
// result NO

// query Kindly provide the recorded test outcome for the following compound: Cc1cc2nc3c4cc(O)ccc4n(CCN(C)C)c3nc2cc1C
// result YES

// query // param item: CC(C)c1cc(C(=O)O)c(O)c(C(C)C)c1.CC(C)c1cc(C(=O)O)c(O)c(C(C)C)c1.[Mn] ; yields the recorded call
// result NO

// query Returns: the outcome recorded for CCCCCCCCNc1cccc2c1C(=O)c1ccccc1C2=O in this assay.
// result NO

// query Just curious, what result did CCCCCCCN(CCCCCCC)C(=N)c1ccnc2ccccc12 get here?
// result YES

// query State the result this test recorded for O=C1CN(c2ccccc2)C(=O)C1C(=O)Nc1ccc(Cl)c(Cl)c1 (configuration not stated) .
// result YES

// query Name the outcome recorded for COc1ccc(C2c3ccccc3NC(=O)N2C2CCN(C)CC2)c(OC)c1 (configuration not stated) in the assay.
// result NO

// query Test call, this compound: COc1ccc(-c2cc(-c3cccs3)n(N=O)c(=O)c2C#N)cc1
// result NO

// query Each compound tested received a call. Report the one for CC(C)=CCC/C(C)=C/CC/C(C)=C/CSC[C@H](NC(=O)CCCCCN1CCN(C)CC1)C(=O)NC1CCCCCC1 .
// result YES

// query Field: outcome | Entry: COc1ccc(C2C(C#N)=C(N)Oc3c2sc2c(F)cccc32)cc1 (configuration not stated)
// result NO

// query Check the results log: what was the call for C[C@H]1[C@@H]2[C@H]3CC[C@@H]4[C@@]5(C)Cc6c([nH]c7ccccc67)C(C)(C)[C@@H]5CC[C@@]4(C)[C@]3(C)CC[C@]23CO[C@]1(C)[C@@H](C(=O)/C=C/c1ccccn1)C3 ?
// result NO

// query Recorded test outcome, item COc1cc(NC(C)CN(CC(C)C)C(C)C)c2ncccc2c1 (configuration not stated)
// result NO

// query What outcome does the record of this test show for COc1ccc(-c2cc(=O)oc3ccc(Cl)cc23)cc1F ?
// result YES

// query Dear all, I need the recorded test outcome for Cn1cc(-c2csc(-c3cn(CCNC(=O)OC(C)(C)C)c4ccc(F)cc34)n2)c2cccnc21 , thank you.
// result NO

// query Returns: the outcome recorded for CCOc1ccc(NC(=O)c2ccoc2COc2ccccc2)cc1 in this assay.
// result NO

// query What call does the record list for c1ccc2[nH]c(-c3ccc(Nc4nc(N5CCCCC5)nc(N5CCOCC5)n4)cc3)nc2c1 ?
// result YES

// query Can you look up the reported call for C=C(C)[C@@H]1CC[C@]2(C)[C@H](CC=C3[C@@H]4CC(C)(C)CC[C@]4(C(=O)OC)CC[C@]32C)[C@@]1(C)CC/C(N)=N/O for me?
// result NO

// query In this assay, the call recorded for COc1cccc(-c2nn(-c3ccccc3)cc2-c2ccnc(NCCNS(=O)(=O)c3ccc(C(F)(F)F)cc3)c2)c1 was what?
// result NO

* * *

Test system: KM12 colon
measurement-protocol: NCI-60 one-dose screen, 48 h (100 = growth as untreated, 0 = no growth, -100 = all killed)
stated-conditions: 10 µM unless noted
Procedure: Growth inhibition of the KM12 human tumor cell line is measured as a screen for anti-cancer activity. Cells are grown in 96 well plates and exposed to the test compound for 48 hours. Compounds are tested at a single concentration, which is 10^-5 M for most compounds. The reported endpoint is percent growth (GI% or GIPRCNT), where numbers from 0 - 100% represent growth inhibition, and numbers from -100% - 0 represent cell death. For example, a value of 40 represents 60% growth inhibition. […]
Compounds without any hit were thinned out: in the full panel of roughly 83,000, 20% have a hit.
API: label(entry) gives 1 (yes) if the entry's growth is strictly smaller than 90%; on equality or larger values it gives 0 (no).

// query Bench note: check whether CC1(c2ccccc2)OC1C(=O)O (stereo unspecified) shows growth below 90%
// result 0 (no)

// query Does Clc1ccc2c(NCCNc3nc(-c4ccccc4)cc(-c4ccccc4)n3)ccnc2c1 have growth strictly under 90%?
// result 1 (yes)

// query Does this compound meet the criterion growth < 90%? CC(=O)OC[C@]12CC[C@@H](/C(C)=N/O)[C@@H]1[C@H]1CC[C@@H]3[C@@]4(C)CCCNC(C)(C)[C@@H]4CC[C@@]3(C)[C@]1(C)CC2
// result 1 (yes)

// query Field: below-cutoff. Rule: recorded growth strictly less than 90%. Subject: Cc1cccc(C)c1NCc1nc(-c2ccccc2)n[nH]1
// result 0 (no)

// query Is 90% strictly greater than the compound's reported growth? compound: Clc1cc(Cl)cc(Nc2ccc3c(OCCCN4CCOCC4)cccc3n2)c1
// result 1 (yes)

* * *

Test system: PC-3 prostate
measurement-protocol: NCI-60 one-dose screen, 48 h
stated-conditions: 10 µM unless noted
Compounds without any hit were thinned out: in the full panel of roughly 83,000, 20% have a hit. Activity calls are given as the source filed them. Rule for the calls: active = growth percent below 10; inactive = the rest.
Could you please pick one outcome from this set? active, inactive

// query Which outcome was entered for the molecule O=C(NC1=CC(=O)c2ccccc2C1=O)c1ccccc1 in this test?
// result inactive

// query Per the records of this test, what outcome belongs to Nc1ccccc1NC(=O)c1ccc(CN2CCC/C(=C\c3ccccn3)C2=O)cc1 ?
// result inactive

// query Which outcome was entered for the molecule O=C1C(=O)N(CCCCn2cc(-c3ccccc3)nn2)c2ccccc21 in this test?
// result inactive

// query // return assay outcome for O=S(=O)(NCCNc1cc(-c2cn(-c3ccccc3)nc2-c2cccc(O)c2)ccn1)c1ccc(Cl)cc1
// result inactive

// query Please share the test call associated with COC(=O)[C@]12CC[C@@H](C)[C@H](C)[C@@H]1C1=CC[C@@H]3[C@@]4(C)C[C@@H](O)[C@H](O)[C@@](C)(CO)C4=CC[C@@]3(C)[C@]1(C)CC2 .
// result active
